Target: Neu5Gc(a2-3)Gal(b1-4)[Fuc(a1-3)]GlcNAc
Assay: glycan array binding signal (z-score within array); higher = stronger binding
Conditions: glycan notation: IUPAC condensed, linker removed
Only a selection was taken, and the strongest signals are over-represented in it overall.

{"Binder": "Erv46-EDTA (Saccharomyces cerevisiae), P39727 (protein) MKFLVNVALVFMVVYISYIYAAAPEHHHHHHDYDIPTTENLYFQGAMDSVVTRPQLVVDRDRHAKLELNMDVTFPSMPCDLVNLDIMDDSGEMQLDILDAGFTMSRLNSEGRPVGDATELHVGGNGDGTAPVNNDPNYCGPCYGAKDQSQNENLAQEEKVCCQDCDAVRSAYLEAGWAFFDGKNIEQCEREGYVSKINEHLNEGCRIKGSAQINRIQGNLHFAPGKPYQNAYGHFHDTSLYDKTSNLNFNHIINHLSFGKPIQSHSKLLGNDKRHGGAVVATSPLDGRQVFPDRNTHFHQFSYFAKIVPTRYEYLDNVVIETAQFSATFHSRPLAGGRDKDHPNTLHVRGGIPGMFVFFEMSPLKVINKEQ", "glycan array binding signal (z-score)": 0.625}
{"Binder": "GSL-I (Griffonia simplicifolia) (protein) FNLPNFWSDVKDNIIFQGDANTTAGTLQLCKTNQYGNPLQYRAGRALYSDPVQLWDNKTGSVASFYTEFTFFLKITGDGPADGLAFFLAPPDSDVKDAGAYLGLFNKSTATQPSKNQVVAVEFDTWKNTDFPEPSYRHIGINVNSIVSVATKRWEDSDIFSGKIATARISYDGSAKILTVVLSYPDGADYILSHSVDLSKNLPNPIRVGISASTGANQFLTVYVLSWRFSSALQSTSVNAAMGPEIIRTVV", "glycan array binding signal (z-score)": -0.153}
{"Binder": "PILRa (Homo sapiens), Q9UKJ1 (protein) MGRPLLLPLLPLLLPPAFLQPSGSTGSGPSYLYGVTQPKHLSASMGGSVEIPFSFYYPWELATAPDVRISWRRGHFHRQSFYSTRPPSIHKDYVNRLFLNWTEGQKSGFLRISNLQKQDQSVYFCRVELDTRSSGRQQWQSIEGTKLSITQAVTTTTQRPSSMTTTWRLSSTTTTTGLRVTQGKRRSDSWHISLETAVGVAVAVTVLGIMILGLICLLRWRRRKGQQRTKATTPAREPFQNTEEPYENIRNEGQNTDPKLNPKDDGIVYASLALSSSTSPRAPPSHRPLKSPQNETLYSVLKA", "glycan array binding signal (z-score)": -0.343}
{"Binder": "HHL-1 (Homo sapiens), P07306 (protein) TKEYQDLQHLDNEESDHHQLRKGPPPPQPLLQRLCSGPRLLLLSLGLSLLLLVVVCVIGSQNSQLQEELRGLRETFSNFTASTEAQVKGLSTQGGNVGRKMKSLESQLEKQQKDLSEDHSSLLLHVKQFVSDLRSLSCQMAALQGNGSERTCCPVNWVEHERSCYWFSRSGKAWADADNYCRLEDAHLVVVTSWEEQKFVQHHIGPVNTWMGLHDQNGPWKWVDGTDYETGFKNWRPEQPDDWYGHGLGGGEDCAHFTDDGRWNDDVCQRPYRWVCETELDKASQEPPLL", "glycan array binding signal (z-score)": 0.159}
{"Binder": "Siglec-H (Mus musculus), Q4QQK7 (protein) MLLSRLLPLLWVLKWASGNCFILPREVIGTYPSLTLELQSVTVQEGLCVLVPCHLIEYPMNRWSDAAFGYWFHEGENTHPDSLVATNKPYQLVQKEMQSRFHFSGDCSLDIRDAQKGDNGSYFFRLEKGGKTWNFCEERISVHVTDLTHSPNISIPQTLELGRPTNVMCSVPWACERGTPPIFSWMSAALISLGPTTTLSSVLTLTPRLQDHGTNLTCQVTFPGAGVTVQKTIQLNVTYNSQNSTAHVSGRVGPGKPRPLADVVQVAMGEAAIKFLLLGICFFFLSKRSHTKRVERPATHMDQAHAVMD", "glycan array binding signal (z-score)": -0.29}
{"Binder": "Gal 2 (Homo sapiens), P05162 (protein) MTGELEVKNMDMKPGSTLKITGSIADGTDGFVINLGQGTDKLNLHFNPRFSESTIVCNSLDGSNWGQEQREDHLCFSPGSEVKFTVTFESDKFKVKLPDGHELTFPNRLGHSHLSYLSVRGGFNMSSFKLKE", "glycan array binding signal (z-score)": -0.212}
{"Binder": "IRp60B (Homo sapiens), Q9UGN4-3 (protein) MWLPWALLLLWVPAGDHSELSQNPKQAATQSELHYANLELLMWPLQEKPAPPREVEVEYSTVASPREELHYASVVFDSNTNRIAAQRPREEEPDSDYSVIRKT", "glycan array binding signal (z-score)": -0.107}
{"Binder": "Mermaid2 (Stilbonema majum) (protein) MGSSHHHHHHSSGLVPRGSHMAASGWLRSPQGTVVKLYRRSLSWSKADEFCKDVDGRLVVDRTADMHLFLIKNVLKEKKSRVWVGLRRTAPHSRTWIWSDGTRQNEDDLNTNLWLRDEPNDAAGEEECALFMYSPWEKAWGLNDYLCRGGCRSYQFICEKGIR", "glycan array binding signal (z-score)": 3.71}
{"Binder": "DrGal9 (Danio rerio) (protein) MAFYQQPPYYNPRIPFSGPIQGGLQDGKSIIISGRVLPGANRFHVNLQCGSHSEANVALHFNPRYEDTDYVVNNSYLNRTWGSEERKYESPFAQGQTFTLQILVAQDKYKISTNGRHFMDYKHRIPFTQVDTVAVEGMVEVNSVAFQNPAGFIPPQAGYAPQYAVPPGCGFPAFPSAPNYTIPHKTVMNGGLHPGKNIVINGVVNPNAKSIIFNLCYRSGIAFHYNPRFDENVVVRNTNQMEKWGAEERFGGLPFHKGQPFQVTISCNPQHYNVFVNGKQEHTYKHRYTKLNDIDILEICGDLQLTSVQA", "glycan array binding signal (z-score)": -0.351}
{"Binder": "Mcg Light Chain Dimer (Homo sapiens), Q6PIK1 (protein) MAGFPLLLTLLTHCAGSWGQSLLTQPPSVSGTPGQRVTISCSGSSSNIGINYVYWYQQIPGTAPKLLISTNDQRPSGVPDRFSGSKSGTSASLAIGGLRSEDEAHYYCAAWDDSMSGPGYAFGTGTKVTVLRQPKANPTVTLFPPSSEELQANKATLVCLISDFYPGAVTVAWKADGSPVKAGVETTKPSKQSNNKYAASSYLSLTPEQWKSHRSYSCQVTHEGSTVEKTVAPTECS", "glycan array binding signal (z-score)": 1.2}
